- method: Metabolic stability in CD-1 mouse intestinal microsomes assessed as compound remaining at 2 x 10^-6 M in presence of NADPH measured for 60 mins
- Assay type: ADME, Intestine, Microsome
- condition: dose 2 10^-6M, read-out: Stability
quantityMeasured: remaining at 1 h, 2 µM (%)
Output spec: scalar in %, unitless text.

Record Cc1ccc(C2=CC(C)(C)Oc3ccc(C(=O)Nc4ccc(C(=O)O)cc4)cc32)cc1 . Reported remaining at 1 h, 2 µM: 100

====

- method: Metabolic stability in CD-1 mouse liver microsomes assessed as compound remaining in presence of NADPH measured for 60 mins at 10^-6 M
- Type: ADME, Microsome
- condition: dose 1 10^-6M, read-out: Stability
quantityMeasured: remaining at 1 h, 1 µM (%)
Lab book: enter the figure in %, no units written.

Just so you know, measured remaining at 1 h, 1 µM for Cc1ccc(C2=CC(C)(C)Oc3ccc(C(=O)Nc4ccc(C(=O)O)cc4)cc32)cc1 came out at 100

====

Quick reference: pEC50 of the listed items.
- target: Retinoic acid receptor beta (Homo sapiens)
- Sequence (P10826 whole entry): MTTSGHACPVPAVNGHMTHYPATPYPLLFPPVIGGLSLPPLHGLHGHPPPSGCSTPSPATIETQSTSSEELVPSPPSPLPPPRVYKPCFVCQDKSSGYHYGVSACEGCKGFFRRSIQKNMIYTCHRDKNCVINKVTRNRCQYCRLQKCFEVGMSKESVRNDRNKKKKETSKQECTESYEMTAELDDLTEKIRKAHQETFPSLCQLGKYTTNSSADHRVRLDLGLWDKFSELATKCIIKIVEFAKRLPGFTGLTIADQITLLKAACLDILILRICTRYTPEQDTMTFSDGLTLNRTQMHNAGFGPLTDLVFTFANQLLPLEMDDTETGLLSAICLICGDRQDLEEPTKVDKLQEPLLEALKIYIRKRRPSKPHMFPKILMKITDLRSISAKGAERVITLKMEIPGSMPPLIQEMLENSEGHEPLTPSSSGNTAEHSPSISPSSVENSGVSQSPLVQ
- method: Agonist activity at recombinant human RAR-beta expressed in mammalian cells by luciferase reporter gene based transactivation assay
Give only the number. pEC50 is defined as minus log10 of concentration in molar units.

Consider the following illustrative entries.
smilesStr	quantityMeasured	obsValue
CC1(C)CC=C(c2ccccc2)c2cc(C(=O)Nc3ccc(C(=O)O)cc3)ccc21	pEC50	7.60
CC1(C)CC=C(c2cccs2)c2cc(C(=O)Nc3ccc(C(=O)O)cc3)ccc21	pEC50	7.82

Looking up Cc1ccc(C2=CCC(C)(C)c3ccc(C(=O)Nc4ccc(C(=O)O)cc4)cc32)cc1 , I found its pEC50 recorded as 7.26

The value of pEC50 measured for the compound Cc1ccc(C2=CC(C)(C)Oc3ccc(C(=O)Nc4ccc(C(=O)O)cc4)cc32)cc1 turned out to be 7.12

====

- target: Retinoic acid receptor alpha (Homo sapiens)
- Sequence (P10276 whole entry): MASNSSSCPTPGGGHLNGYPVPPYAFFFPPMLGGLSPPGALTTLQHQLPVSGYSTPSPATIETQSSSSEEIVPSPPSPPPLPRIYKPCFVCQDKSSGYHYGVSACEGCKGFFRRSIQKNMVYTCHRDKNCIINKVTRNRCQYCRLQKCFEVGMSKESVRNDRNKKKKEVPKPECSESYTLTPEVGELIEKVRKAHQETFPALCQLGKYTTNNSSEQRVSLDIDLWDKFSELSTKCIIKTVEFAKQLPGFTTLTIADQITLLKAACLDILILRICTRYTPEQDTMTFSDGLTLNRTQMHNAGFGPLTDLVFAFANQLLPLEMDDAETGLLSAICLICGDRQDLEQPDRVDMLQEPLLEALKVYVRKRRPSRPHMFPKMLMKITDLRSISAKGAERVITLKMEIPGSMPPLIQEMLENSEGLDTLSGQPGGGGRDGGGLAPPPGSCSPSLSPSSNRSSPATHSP
- method: Antagonist activity at recombinant human RAR-alpha expressed in mammalian cells in presence of 9-cis-RA by luciferase reporter gene based transactivation assay
- Type: cell-based
Listed here are compounds together with their documented IC50.

Answered examples (2):
smilesStr	IC50
CC1(C)CC=C(c2ccc(N3CCOCC3)cc2)c2cc(NC(=O)c3ccc(C(=O)O)c([N+](=O)[O-])c3)ccc21	> 3300 nM
Cc1ccc(C2=CC(C)(C)Oc3c(Br)cc(S(=O)(=O)Nc4ccc(C(=O)O)cc4)cc32)cc1	> 3300 nM

We now examine a further compound.
The compound identified as CC1(C)CC=C(c2cccs2)c2cc(C(=O)Nc3ccc(C(=O)O)cc3)ccc21 registered its IC50 at 440 nM

====

- target: Retinoic acid receptor beta (Homo sapiens)
- method: Antagonist activity at recombinant human RAR-beta expressed in mammalian cells in presence of ATRA by luciferase reporter gene based transactivation assay
Item-by-item account of IC50

smilesStr	obsValue
CC1(C)CC=C(c2ccc(CN3CCOCC3)cc2)c2cc(NC(=O)c3ccc(C(=O)O)cc3)ccc21	> 3.3 µM

So, CC1(C)CC=C(c2ccc(N3CCOCC3)cc2)c2cc(NC(=O)c3ccc(C(=O)O)cc3)ccc21 ? Its IC50 was 0.73 µM

The value of IC50 measured for the compound CC1(C)CC=C(c2ccc(N3CCOCC3)cc2)c2cc(C(=O)Nc3ccc(C(=O)O)cc3)ccc21 turned out to be > 3.3 µM

Value of IC50 reported for the compound Cc1ccc(C2=CCC(C)(C)c3ccc(NC(=O)Nc4ccc(C(=O)O)cc4)cc32)cc1 is 0.84 µM

The compound Cc1ccc(C2=CC(C)(C)Oc3ccc(S(=O)(=O)Nc4ccc(C(=O)O)cc4)cc32)cc1 showed IC50 equal to > 3.3 µM

The compound identified as CC1(C)CC=C(c2ccc(C(=O)N3CCOCC3)cc2)c2cc(NC(=O)c3ccc(C(=O)O)cc3)ccc21 registered its IC50 at > 3.3 µM

====

- target: Retinoic acid receptor alpha (Homo sapiens) (UniProt P10276)
- Sequence (P10276 whole entry): as above
- method: Agonist activity at recombinant human RAR-alpha expressed in mammalian cells by luciferase reporter gene based transactivation assay relative to control
- Type: cell-based
quantityMeasured: Emax (%)
Provide only the numeric value, understood in %.

Answered cases to consult:
smilesStr	unitOfMeasure	Emax
CC1(C)CC=C(c2ccccc2)c2cc(C(=O)Nc3ccc(C(=O)O)cc3)ccc21	%	4
CC1(C)CC=C(c2ccc(CN3CCOCC3)cc2)c2cc(C(=O)Nc3ccc(C(=O)O)cc3)ccc21	%	0
Cc1ccc(C2=CCC(C)(C)c3ccc(C(=O)Nc4ccc(C(=O)O)cc4)cc32)cc1	%	9

Now for the compound whose Emax we want.
Entry CC1(C)CC=C(c2cccs2)c2cc(C(=O)Nc3ccc(C(=O)O)cc3)ccc21 — recorded Emax = 3

====

- target: Retinoic acid receptor gamma (Homo sapiens, UniProt P13631)
- Sequence (P13631 whole entry): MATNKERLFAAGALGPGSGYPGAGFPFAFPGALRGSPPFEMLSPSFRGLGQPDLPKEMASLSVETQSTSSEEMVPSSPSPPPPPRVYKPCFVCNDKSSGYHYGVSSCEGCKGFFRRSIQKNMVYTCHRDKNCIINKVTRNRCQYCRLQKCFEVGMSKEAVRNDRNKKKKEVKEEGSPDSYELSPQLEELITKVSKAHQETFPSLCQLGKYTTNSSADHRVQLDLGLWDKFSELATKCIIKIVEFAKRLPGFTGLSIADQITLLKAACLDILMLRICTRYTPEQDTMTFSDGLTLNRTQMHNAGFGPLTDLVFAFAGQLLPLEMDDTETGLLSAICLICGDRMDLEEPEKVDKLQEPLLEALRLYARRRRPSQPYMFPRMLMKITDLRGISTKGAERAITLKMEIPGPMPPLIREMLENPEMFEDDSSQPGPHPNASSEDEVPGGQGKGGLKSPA
- method: Antagonist activity at recombinant human RAR-gamma expressed in mammalian cells in presence of ATRA by luciferase reporter gene based transactivation assay
quantityMeasured: IC50

Sample records with IC50:
smilesStr	IC50
CC1(C)CC=C(c2ccccc2)c2cc(/C=C/c3ccc(C(=O)O)cc3)ccc21	0.0075 µM
CC1(C)CC=C(c2ccc(C(=O)N3CCOCC3)cc2)c2cc(NC(=O)c3ccc(C(=O)O)cc3)ccc21	> 3.3 µM
Cc1ccc(C2=CC(C)(C)Oc3ccc(S(=O)(=O)Nc4cc(F)c(C(=O)O)c(F)c4)cc32)cc1	> 3.3 µM
Cc1ccc(C2=CCC(C)(C)c3ccc(N4CCc5cc(C(=O)O)ccc5C4)cc32)cc1	> 3.3 µM

Continue with the next molecule.
Retinoic acid receptor gamma (Homo sapiens, UniProt P13631) data for Cc1ccc(C2=CCC(C)(C)c3ccc(NC(=O)Nc4ccc(C(=O)O)cc4)cc32)cc1 ; its IC50: > 3.3 µM

====

- target: Retinoic acid receptor gamma (Homo sapiens, UniProt P13631)
- method: Antagonist activity at recombinant human RAR-gamma expressed in mammalian cells in presence of ATRA by luciferase reporter gene based transactivation assay
quantityMeasured: IC50

smilesStr	obsValue
Cc1ccc(C2=CC(C)(C)Oc3ccc(C(=O)Nc4ccc(C(=O)O)cc4)cc32)cc1	0.31 µM
Cc1ccc(C2=CC(C)(C)Oc3ccc(NS(=O)(=O)c4ccc(C(=O)O)cc4)cc32)cc1	> 3.3 µM
Cc1ccc(C2=CCC(C)(C)c3ccc(C(=O)N4CCc5cc(C(=O)O)ccc5C4)cc32)cc1	> 3.3 µM
Cc1ccc(C2=CCC(C)(C)c3ccc(-c4ccc5cc(C(=O)O)ccc5n4)cc32)cc1	0.13 µM
Cc1ccc(C2=CC(C)(C)Oc3c(Br)cc(S(=O)(=O)Nc4cc(F)c(C(=O)O)c(F)c4)cc32)cc1	> 3.3 µM

The reported Retinoic acid receptor gamma (Homo sapiens, UniProt P13631) IC50 of Cc1ccc(C2=CCC(C)(C)c3ccc(C(=O)NCc4ccc(C(=O)O)cc4)cc32)cc1 is > 3.3 µM

I looked up CC1(C)CC=C(c2ccc(CN3CCOCC3)cc2)c2cc(NC(=O)c3ccc(C(=O)O)cc3)ccc21 and its IC50 for Retinoic acid receptor gamma (Homo sapiens, UniProt P13631) was > 3.3 µM

Measured on Retinoic acid receptor gamma (Homo sapiens, UniProt P13631), CC1(C)CC=C(c2ccccc2)c2cc(NC(=O)Nc3ccc(C(=O)O)cc3)ccc21 has a documented IC50 of > 3.3 µM

Let me check: CC1(C)CC=C(c2ccc(N3CCOCC3)cc2)c2cc(NC(=O)c3ccc(C(=O)O)cc3)ccc21 , system Retinoic acid receptor gamma (Homo sapiens, UniProt P13631), measured IC50 is > 3.3 µM

The molecule CC1(C)CC=C(c2cnc3ccccc3c2)c2cc(C(=O)Nc3ccc(C(=O)O)cc3)ccc21 , tested on Retinoic acid receptor gamma (Homo sapiens, UniProt P13631), showed IC50 of 2.7 µM

IC50 on Retinoic acid receptor gamma (Homo sapiens, UniProt P13631) for Cc1ccc(C2=CCC(C)(C)c3ccc(C(=O)Nc4ccc(C(=O)O)cc4)cc32)cc1 is 2.6 µM

Result for CC1(C)CC=C(c2ccccc2)c2cc(C(=O)NCc3ccc(C(=O)O)cc3)ccc21 , tested on Retinoic acid receptor gamma (Homo sapiens, UniProt P13631), IC50: > 3.3 µM
